FYI, the data here is from paper PMC10397247.

# Target or system: T1, 4H319-bH
# T1 chain: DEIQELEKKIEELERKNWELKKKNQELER
# Procedure summary: two-hybrid library CCNG1;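 note: natural log of median RNA to DNA barcode read ratio; higher means stronger binding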
Value type: interaction score
Please respond with just the number, no unit label.

>  <Binder>
DKIQELKKENEELERENWELKKKIQELER [4H2717-bH]

>  <interaction score>
-0.701

$$$$
>  <Binder>
DKIQELEKKNEELKREIWELEKKNQELER [4H2503-bH]

>  <interaction score>
-0.903

$$$$
>  <Binder>
DKIQELKKEIEELERENWELKKENQELKR [4H2588-bH]

>  <interaction score>
0.617

$$$$

Query binder follows.
In: Quick check: interaction score of DEIQELEKKIEELERKNWELKKKNQELER [4H319-bH] ?
Out: 1.04
